- target or test system: Brd4-BD2 L387A,E438C (BromoCatch) (Homo sapiens, UniProt O60885, E438C/L387A)
- measurement description: biochemical
reported property: Ki (nM)
One number for each entry, in nM.

Which Ki reading was recorded for the compound C=CC(=O)Nc1ccc(C2=N[C@@H]([C@@H](CC)C(=O)OC)c3nnc(C)n3-c3sc(C)c(C)c32)cc1 [MR116] ?
6.8
